System: NCI-H441
Assay: relative viability (nuclei count vs DMSO), 5 days (fraction); higher = more cells survive
Settings: first compound 0.3162 µM
reported-endpoint: relative viability
Give a plain numeric answer without units written out.

Look over these answered cases.
CC(C)Oc1cc(Nc2nc(N[C@@H](C)c3ccc(F)cn3)ncc2Cl)n[nH]1 [AZ23] + COc1cc2c(Oc3ccc(NC(=O)C4(C(=O)Nc5ccc(F)cc5)CC4)cc3F)ccnc2cc1OCCCN1CCOCC1 [Foretinib] (partner 0.25 µM) :: 0.967
CC(C)Oc1cc(Nc2nc(N[C@@H](C)c3ccc(F)cn3)ncc2Cl)n[nH]1 [AZ23] + Nc1nc2[nH]cc(CCc3ccc(C(=O)N[C@@H](CCC(=O)O)C(=O)O)cc3)c2c(=O)[nH]1 [Pemetrexed] (partner 0.2 µM) :: 0.267
CC(C)Oc1cc(Nc2nc(N[C@@H](C)c3ccc(F)cn3)ncc2Cl)n[nH]1 [AZ23] + C[C@@H](Oc1cc(-c2cnn(C3CCNCC3)c2)cnc1N)c1c(Cl)ccc(F)c1Cl [Crizotinib] (partner 1 µM) :: 0.774

Next, consider the following compound.
Asked: Report the value of relative viability obtained on NCI-H441 for CC(C)Oc1cc(Nc2nc(N[C@@H](C)c3ccc(F)cn3)ncc2Cl)n[nH]1 [AZ23] + Nc1ncn([C@H]2C[C@H](O)[C@@H](CO)O2)c(=O)n1 [Decitabine] (partner 2 µM) .
Given back: 0.239
